- System: Helicobacter pylori
- testDescription: Antibacterial activity against Helicobacter pylori isolate assessed as inhibition zone diameter at 16 ug/disk after 3-5 days by paper disk diffusion assay
- Assay type: functional
propertyLabel: Activity (mm)
Quick reminder: number only, in mm, skip the unit.

CCS(=O)(=O)CCSc1nnc(-c2ccc([N+](=O)[O-])s2)s1 = 46.7
CCS(=O)(=O)CCSc1nnc(-c2ccc([N+](=O)[O-])o2)s1 = 33.1
CCSCCSc1nnc(-c2ccc([N+](=O)[O-])s2)s1 = 47
CCSCCSc1nnc(-c2ncc([N+](=O)[O-])n2C)s1 = 36.5
CCS(=O)(=O)CCSc1nnc(-c2ncc([N+](=O)[O-])n2C)s1 = 35.8
CCSCCSc1nnc(-c2ccc([N+](=O)[O-])o2)s1 = 30.7

# ---- query compound ----
Give reported Activity value for `Cc1ncc([N+](=O)[O-])n1CCO` 18.4

This collection of values is drawn from ChEMBL document CHEMBL1143078.
